Sourced from the supplement of paper PMC9262897

System: E. coli TESEC Alr+ wild-type control
TEST DESCRIPTION: growth (OD600 after 10 h); higher = more growth (less inhibition)
SETTINGS: compound 0.1 mM; raw OD600 reference: median of DMSO wells 0.241, cell-free background 0.041
Where a name gives a salt, the structure may show the parent alone.
QUANTITY KIND: growth
Write no unit; give the number alone.

Observe how each entry below is paired with its result.
C[C@H](O)C(=O)Nc1c(I)c(C(=O)NC(CO)CO)c(I)c(C(=O)NC(CO)CO)c1I [Iopamidol] = 0.261
c1ccc2c(CC3=NCCN3)cccc2c1 [Naphazoline hydrochloride] = 0.231
CCN1CCN(C(=O)N[C@@H](C(=O)N[C@@H]2C(=O)N3C(C(=O)O)=C(CSc4nnnn4C)CS[C@H]23)c2ccc(O)cc2)C(=O)C1=O [Cefoperazone dihydrate] = 0.3
C[N+](C)(C)CCCCCC[N+](C)(C)C [Hexamethonium dibromide dihydrate] = 0.247
C[C@]12C=CC(=O)C=C1CC[C@H]1[C@@H]3C[C@@H](O)[C@](O)(C(=O)CO)[C@@]3(C)C[C@H](O)[C@@]12F [Triamcinolone] = 0.222

Item CC1CC(OC(=O)c2ccccc2O)CC(C)(C)C1 (configuration not stated) [Homosalate] ; assay system E. coli TESEC Alr+ wild-type control; growth reported as 0.248

The reported E. coli TESEC Alr+ wild-type control growth of Nc1nc2n[nH]nc2c(=O)[nH]1 [Azaguanine-8] is 0.21

Entry OCc1cc(C(O)CNCCCCCCOCCCCc2ccccc2)ccc1O (configuration not stated) [Salmeterol] ; assay system E. coli TESEC Alr+ wild-type control; growth recorded at 0.166

Known value: E. coli TESEC Alr+ wild-type control growth of the compound Cc1cc(C)nc(NS(=O)(=O)c2ccc(N)cc2)n1 [Sulfamethazine sodium salt] equals 0.242

growth of CC(=O)OCC(=O)[C@@]1(O)CC[C@H]2[C@@H]3CCC4=CC(=O)C=C[C@]4(C)[C@@]3(F)[C@@H](O)C[C@@]21C [Isoflupredone acetate] , assay on E. coli TESEC Alr+ wild-type control, is 0.206

Note to self: growth of CN1CCN(c2c(F)cc3c(=O)c(C(=O)O)cn4c3c2SCC4)CC1 [Rufloxacin] with E. coli TESEC Alr+ wild-type control was 0.0432

Item CCN[C@H]1CN(CCCOC)S(=O)(=O)c2sc(S(N)(=O)=O)cc21 [Brinzolamide] was tested on E. coli TESEC Alr+ wild-type control; the reported growth is 0.248

// returns growth for CCCC(=O)Nc1ncnc2c1ncn2[C@@H]1O[C@@H]2COP(=O)(O)O[C@H]2[C@H]1OC(=O)CCC [Bucladesine sodium salt] with E. coli TESEC Alr+ wild-type control; value = 0.25

// assay E. coli TESEC Alr+ wild-type control, entry CN1CCC(=C2c3ccccc3Sc3ccccc32)CC1 [Pimethixene maleate] , growth value = 0.0726

Bench note, E. coli TESEC Alr+ wild-type control: entry Cc1ccccc1N1C(=O)c2cc(S(N)(=O)=O)c(Cl)cc2NC1C (configuration not stated) [Metolazone] , its growth = 0.214

Observed growth, E. coli TESEC Alr+ wild-type control, CC1CC(OC(=O)C(O)c2ccccc2)CC(C)(C)N1C (configuration not stated) [Eucatropine hydrochloride] : 0.245

Entry C[C@H]1NC(=O)NC1=O [Methylhydantoin-5-(D)] ; assay system E. coli TESEC Alr+ wild-type control; growth recorded at 0.257
